Target: GST-Dm-Relish (Drosophila melanogaster, UniProt Q94527 99-473)
Sequence: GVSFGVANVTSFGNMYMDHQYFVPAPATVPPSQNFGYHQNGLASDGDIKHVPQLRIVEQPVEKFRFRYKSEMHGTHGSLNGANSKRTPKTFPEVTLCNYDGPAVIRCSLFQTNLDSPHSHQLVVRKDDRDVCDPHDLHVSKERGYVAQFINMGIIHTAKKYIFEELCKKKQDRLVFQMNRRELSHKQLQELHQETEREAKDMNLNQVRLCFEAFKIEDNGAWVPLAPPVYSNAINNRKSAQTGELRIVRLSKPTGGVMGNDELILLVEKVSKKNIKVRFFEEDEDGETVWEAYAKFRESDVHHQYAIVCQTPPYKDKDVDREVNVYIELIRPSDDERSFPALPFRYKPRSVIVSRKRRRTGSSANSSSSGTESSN
Experiment: protein-binding microarray (PBM); PBM: ~300 nM protein, 6 mM HEPES pH 7.8, 80 mM KCl, 0.5 mM EDTA, 0.5 mM EGTA, 6% glycerol, 35 ng/ul poly-dIdC, 1% milk, 1 h, room temperature; high values mean tight binding
Conditions: dsDNA, one strand shown
MEASURE: binding signal (z-score)
Please give a number only; it is taken to be in z-score.

>  <RESIDUES>
CCGATTAACATCACATTCCCCCCTGATGTTAATCGGGTCTTGATTCGCTTGACGCTGCTG

>  <UNIT_ABBREV>
z-score

>  <binding signal>
4.58

$$$$

Returns the measured binding signal for the input sequence. Input: `CCGATTAACATCAATACACCCCCTGATGTTAATCGGGTCTTGATTCGCTTGACGCTGCTG`
3.33

Returns the measured binding signal for the input sequence. Input: `CCGATTAACATCAAAAAAATACCTGATGTTAATCGGGTCTTGATTCGCTTGACGCTGCTG`
5.83

Returns the measured binding signal for the input sequence. Input: `CCGATTAACATCAGGTAACCCCATGATGTTAATCGGGTCTTGATTCGCTTGACGCTGCTG`
6.29

---

Target: GST-Co-NF-kB (Capsaspora owczarzaki, UniProt F1ARL5 200-546)
Sequence: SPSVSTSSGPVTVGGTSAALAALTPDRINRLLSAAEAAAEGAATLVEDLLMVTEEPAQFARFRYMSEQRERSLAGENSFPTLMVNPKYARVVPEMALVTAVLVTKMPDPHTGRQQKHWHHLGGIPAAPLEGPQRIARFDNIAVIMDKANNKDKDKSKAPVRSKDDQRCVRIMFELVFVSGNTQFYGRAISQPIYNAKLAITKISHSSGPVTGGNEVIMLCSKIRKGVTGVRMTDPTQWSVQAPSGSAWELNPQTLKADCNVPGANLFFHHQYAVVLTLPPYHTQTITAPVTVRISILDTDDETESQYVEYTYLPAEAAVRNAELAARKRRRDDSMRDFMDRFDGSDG
Assay: protein-binding microarray (PBM); PBM: ~300 nM protein, 6 mM HEPES pH 7.8, 80 mM KCl, 0.5 mM EDTA, 0.5 mM EGTA, 6% glycerol, 35 ng/ul poly-dIdC, 1% milk, 1 h, room temperature; Ap Aiptasia and Nv Nematostella (sea anemones) / Co Capsaspora / Aq Amphimedon (sponge) / Dm Drosophila / Hu human; RHD is the Rel homology domain; high values mean tight binding
Conditions: dsDNA, one strand shown
param class (str): category from binding signal; see ranges low group (below 3 z-score), middle group (3 z-score to below 5 z-score), high group (5 z-score or more)

>  <RESIDUES>
CCGATTAACATCAATGTTCCCCCTGATGTTAATCGGGTCTTGATTCGCTTGACGCTGCTG

>  <GROUP_LABEL>
high group

$$$$
>  <RESIDUES>
CCGATTAACATCACTTTTTTCCCTGATGTTAATCGGGTCTTGATTCGCTTGACGCTGCTG

>  <GROUP_LABEL>
high group

$$$$
>  <RESIDUES>
CCGATTAACATCAACAAAATCCCTGATGTTAATCGGGTCTTGATTCGCTTGACGCTGCTG

>  <GROUP_LABEL>
low group

$$$$

Could you place `CCGATTAACATCAATTCCCCTGATGATGTTAATCGGGTCTTGATTCGCTTGACGCTGCTG` in its proper category? Many thanks.
high group

Could you place `CCGATTAACATCAGGGGGATATATGATGTTAATCGGGTCTTGATTCGCTTGACGCTGCTG` in its proper category? Many thanks.
high group

Could you place `CCGATTAACATCAAGGGGGGTAATGATGTTAATCGGGTCTTGATTCGCTTGACGCTGCTG` in its proper category? Many thanks.
high group

Could you place `CCGATTAACATCAGGCAATTCCCTGATGTTAATCGGGTCTTGATTCGCTTGACGCTGCTG` in its proper category? Many thanks.
low group

Could you place `CCGATTAACATCAAAAATCCCATTGATGTTAATCGGGTCTTGATTCGCTTGACGCTGCTG` in its proper category? Many thanks.
low group
